- system.tested: Cytochrome P450 3A4 (Homo sapiens)
- Sequence (P08684 whole entry): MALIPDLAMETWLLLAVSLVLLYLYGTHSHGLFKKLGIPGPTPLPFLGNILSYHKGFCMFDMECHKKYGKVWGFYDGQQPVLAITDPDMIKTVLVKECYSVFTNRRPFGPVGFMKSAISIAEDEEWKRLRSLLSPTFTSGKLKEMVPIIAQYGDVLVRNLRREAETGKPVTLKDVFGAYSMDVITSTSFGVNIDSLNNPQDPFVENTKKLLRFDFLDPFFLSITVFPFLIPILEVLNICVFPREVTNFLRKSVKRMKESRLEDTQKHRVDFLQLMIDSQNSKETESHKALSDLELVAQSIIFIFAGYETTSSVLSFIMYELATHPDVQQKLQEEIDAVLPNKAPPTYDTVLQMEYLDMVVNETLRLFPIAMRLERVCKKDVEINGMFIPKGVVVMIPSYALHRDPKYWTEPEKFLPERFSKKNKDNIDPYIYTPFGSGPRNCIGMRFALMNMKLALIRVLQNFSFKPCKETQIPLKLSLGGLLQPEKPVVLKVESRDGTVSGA
pIC50: −log10 of the molar value.
endpoint: pIC50

| smiles.notation | reading |
| --- | --- |
| O=C(Cn1cc(Nc2ncnc3cc(OCCCN4CCC[C@@H]4COP(=O)(O)O)ccc23)cn1)Nc1cccc(F)c1F | 5.21 |

----------
- method.notes: Solubility in tris buffer at pH 9
- Type: physicochemical

| smiles.notation | solubility / µg/mL |
| --- | --- |
| O=C(Cn1cc(Nc2ncnc3cc(OCCCN4CCC[C@@H]4COP(=O)(O)O)ccc23)cn1)Nc1cccc(F)c1F | 10000 |

----------
- system.tested: Voltage-gated inwardly rectifying potassium channel KCNH2 (Homo sapiens, UniProt Q12809)
- Sequence (Q12809 whole entry): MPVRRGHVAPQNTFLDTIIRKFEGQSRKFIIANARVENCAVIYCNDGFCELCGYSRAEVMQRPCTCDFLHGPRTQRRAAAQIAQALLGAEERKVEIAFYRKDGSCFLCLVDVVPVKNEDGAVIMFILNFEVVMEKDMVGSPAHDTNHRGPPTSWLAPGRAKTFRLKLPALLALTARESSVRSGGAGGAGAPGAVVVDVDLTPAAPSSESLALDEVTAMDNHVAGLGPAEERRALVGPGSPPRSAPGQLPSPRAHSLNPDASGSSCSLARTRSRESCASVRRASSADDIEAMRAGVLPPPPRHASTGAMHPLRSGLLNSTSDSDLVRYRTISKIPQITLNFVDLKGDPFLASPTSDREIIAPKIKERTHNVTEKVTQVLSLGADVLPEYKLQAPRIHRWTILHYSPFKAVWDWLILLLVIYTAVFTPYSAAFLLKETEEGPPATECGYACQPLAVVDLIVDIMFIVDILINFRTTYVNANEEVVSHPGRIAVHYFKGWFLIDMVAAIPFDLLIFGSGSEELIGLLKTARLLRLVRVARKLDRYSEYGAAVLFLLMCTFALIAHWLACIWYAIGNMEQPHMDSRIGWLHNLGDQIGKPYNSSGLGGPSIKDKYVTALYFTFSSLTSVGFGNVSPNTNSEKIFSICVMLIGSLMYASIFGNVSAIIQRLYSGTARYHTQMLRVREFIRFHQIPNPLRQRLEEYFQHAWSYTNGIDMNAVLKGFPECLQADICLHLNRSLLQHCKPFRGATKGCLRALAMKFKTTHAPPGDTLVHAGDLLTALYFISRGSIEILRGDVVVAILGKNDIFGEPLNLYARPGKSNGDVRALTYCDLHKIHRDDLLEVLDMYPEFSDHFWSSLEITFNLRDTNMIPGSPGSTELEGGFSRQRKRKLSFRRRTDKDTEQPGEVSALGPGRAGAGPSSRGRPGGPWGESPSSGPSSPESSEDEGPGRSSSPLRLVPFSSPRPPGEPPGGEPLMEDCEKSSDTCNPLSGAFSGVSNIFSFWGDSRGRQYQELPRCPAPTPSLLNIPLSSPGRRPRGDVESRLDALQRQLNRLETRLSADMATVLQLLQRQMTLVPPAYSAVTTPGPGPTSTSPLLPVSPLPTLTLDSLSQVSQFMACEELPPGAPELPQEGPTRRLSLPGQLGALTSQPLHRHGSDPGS
- method.notes: Inhibition of human ERG by automated whole cell electrophysiology
pIC50: −log10 of the molar value.
endpoint: pIC50

| smiles.notation | system.tested | endpoint | reading |
| --- | --- | --- | --- |
| O=C(Cn1cc(Nc2ncnc3cc(OCCCN4CCC[C@@H]4COP(=O)(O)O)ccc23)cn1)Nc1cccc(F)c1F | Voltage-gated inwardly rectifying potassium channel KCNH2 (Homo sapiens, UniProt Q12809) | pIC50 | < 4.00 |
